Listed here: items and their measured E (1%, 1 cm).
# Measurement Description: UV absorbance spectrum in solution (λmax, λcrit, extinction coefficients)
# Type: physicochemical
# Applied Conditions: mass extinction coefficient
Returns: the value as a bare number; no unit string appended.

# example entries with known answers
{"columns": ["Smiles Input", "Reported Measurement"],
 "data": [
  ["O=C(/C(=C\\N1CCCN(/C=C(\\C(=O)C(F)(F)F)c2ccccc2)c2ccccc21)c1ccccc1)C(F)(F)F", 690],
  ["O=C(/C(=C(/c1ccccc1)N1CCCC1)c1ccccc1)C(F)(F)F", 358],
  ["CCN(/C=C(/C(=O)C(F)(F)F)c1ccccc1)c1ccc(C(=O)OC)cc1", 728],
  ["COC(=O)c1ccc2c(c1)CCN2/C=C(\\C(=O)C(F)(F)F)c1ccccc1", 1230]
]}

For reference, reported E (1%, 1 cm) for "CCN(/C=C(\C(=O)C(=O)N(C)C)c1ccccc1)c1ccccc1" stands at 724

For reference, reported E (1%, 1 cm) for "COC(=O)c1ccc2c(c1)CCN2/C=C(/C(=O)c1ccccc1O[Si](C)(C)C(C)(C)C)c1ccccc1" stands at 1089

For reference, reported E (1%, 1 cm) for "COc1ccccc1C(=O)/C(=C/N1CCc2ccccc21)c1ccccc1" stands at 1074

For reference, reported E (1%, 1 cm) for "Cc1ccc2c(c1)CCN2/C=C(\C(=O)C(F)(F)F)c1ccccc1" stands at 1108

Attribution: patent US11512042B2
